Provenance of the data: paper PMC8270338

Target entity: UniProt:P04585
Property: IC50; scope: individual compounds
# output: bare number, implied unit µM

Completed entries (count: 5):
Entry smiles	Measurement unit	Result number
COc1ccc(-c2ccccc2Br)cc1C=NNc1nc(-c2ccc([N+](=O)[O-])cc2)cs1	µM	27
COc1ccc(-c2ccccc2C(N)=O)cc1/C=N/Nc1nc(-c2ccc([N+](=O)[O-])cc2)cs1	µM	4.5
COc1ccc(-c2csc(N/N=C/c3cc(-c4ccccc4C(N)=O)ccc3OC)n2)cc1	µM	21.5
COc1ccc(-c2csc(NN=Cc3cc(-c4ccccc4)ccc3OC)n2)cc1	µM	19.5
COc1ccc(-c2ccc(F)cc2)cc1C=NNc1nc(-c2ccc([N+](=O)[O-])cc2)cs1	µM	19

API: value(readout=IC50, system=UniProt:P04585) for record COc1ccc(-c2ccccc2)cc1C=NNc1nc(-c2cccc(Cl)c2)cs1
46

API: value(readout=IC50, system=UniProt:P04585) for record COc1ccc(-c2ccccc2Br)cc1C=NNc1nc(-c2ccc(Cl)c(Cl)c2)cs1
15
